Biological target: hOT7T175 (Homo sapiens, UniProt Q969F8, L364H)
Sequence (Q969F8 whole entry L364H): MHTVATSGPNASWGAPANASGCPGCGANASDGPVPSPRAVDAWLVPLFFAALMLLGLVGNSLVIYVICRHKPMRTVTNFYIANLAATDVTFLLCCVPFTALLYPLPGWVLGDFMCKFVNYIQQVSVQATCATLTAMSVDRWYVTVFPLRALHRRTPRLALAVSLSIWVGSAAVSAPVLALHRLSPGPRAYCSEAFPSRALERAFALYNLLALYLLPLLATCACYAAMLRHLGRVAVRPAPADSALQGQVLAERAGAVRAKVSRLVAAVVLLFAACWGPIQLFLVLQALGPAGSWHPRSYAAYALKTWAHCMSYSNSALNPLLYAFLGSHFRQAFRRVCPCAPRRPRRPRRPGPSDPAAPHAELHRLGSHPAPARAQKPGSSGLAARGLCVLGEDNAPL
Experiment: Intracellular Ca ion level-increasing activity using FLIPR in hOT7T175/CHO
Type: cell-based
Set-up: expressed in transfected cells; host or cells: CHO/dhfr- cells, obtained from ATCC
Settings: relative, Metastin (1-54) = 1
Square brackets hold non-standard residues; d marks the D form. Peptide text beside a SMILES is read from it. Arg(Me) = CNC(=N)NCCC[C@H](N)C(=O)O; Cha = N[C@@H](CC1CCCCC1)C(=O)O; azaGly = NNC(=O)O
readout.name: Specific Activity (intracellular Ca ion level-increasing activity)

compound: CC(C)C[C@H](NC(=O)CNC(=O)[C@H](Cc1ccccc1)NC(=O)[C@H](CO)NC(=O)[C@H](CC(N)=O)NC(=O)[C@H](Cc1c[nH]c2ccccc12)NC(=O)[C@H](CC(N)=O)NC(=O)[C@@H](N)Cc1ccc(O)cc1)C(=O)N[C@@H](CCCNC(=N)N)C(=O)N[C@@H](Cc1ccc(N)cc1)C(N)=O
observed.measurement: 3
//
compound: CC(C)C[C@H](NC(=O)CNC(=O)[C@H](Cc1ccccc1)NC(=O)[C@H](CO)NC(=O)[C@H](CC(N)=O)NC(=O)[C@H](Cc1c[nH]c2ccccc12)NC(=O)[C@H](CC(N)=O)NC(=O)[C@@H](N)CC(=O)O)C(=O)N[C@@H](CCCNC(=N)N)C(=O)N[C@@H](Cc1ccccc1)C(N)=O [Compound No. 75] (H-DNWNSFGLRF-NH2)
observed.measurement: 1
//
compound: CNC(=N)NCCC[C@H](NC(=O)[C@H](CC(C)C)NC(=O)NNC(=O)[C@H](Cc1ccccc1)NC(=O)[C@H](CO)NC(=O)[C@H](CC(N)=O)NC(=O)[C@@H](Cc1c[nH]c2ccccc12)NC(=O)[C@H](N)Cc1ccc(O)cc1)C(=O)N[C@@H](Cc1ccccc1)C(N)=O [Compound No. 242] (H-[dY][dW]NSF[azaGly]L[Arg(Me)]F-NH2)
observed.measurement: 2
//
compound: CC(C)C[C@H](NC(=O)CNC(=O)[C@H](Cc1ccccc1)NC(=O)[C@H](CO)NC(=O)[C@H](CC(N)=O)NC(=O)[C@H](Cc1c[nH]c2ccccc12)NC(=O)[C@H](CC(N)=O)NC(=O)[C@@H](N)Cc1ccc(O)cc1)C(=O)N[C@@H](CCCNC(=N)N)C(=O)N[C@@H](Cc1ccc([N+](=O)[O-])cc1)C(N)=O
observed.measurement: 10
//
compound: CNC(=N)NCCC[C@H](NC(=O)[C@H](CC(C)C)NC(=O)NNC(=O)[C@H](Cc1ccccc1)NC(=O)[C@H](CO)NC(=O)[C@H](CC(N)=O)NC(=O)[C@H](CC1CCCCC1)NC(=O)[C@H](CC(N)=O)NC(=O)[C@H](N)Cc1ccc(O)cc1)C(=O)N[C@@H](Cc1ccccc1)C(N)=O [Compound No. 190] (H-[dY]N[Cha]NSF[azaGly]L[Arg(Me)]F-NH2)
observed.measurement: 10
//
compound: CNC(=N)NCCC[C@H](NC(=O)[C@H](CC(C)C)NC(=O)CNC(=O)[C@H](Cc1ccccc1)NC(=O)[C@H](CO)NC(=O)[C@H](CC(N)=O)NC(=O)[C@H](Cc1c[nH]c2ccccc12)NC(=O)[C@H](CC(N)=O)NC(=O)[C@H](N)Cc1ccc(O)cc1)C(=O)N[C@@H](Cc1c[nH]c2ccccc12)C(N)=O [Compound No. 174] (H-[dY]NWNSFGL[Arg(Me)]W-NH2)
observed.measurement: 10

###

Specific Activity (intracellular Ca ion level-increasing activity) values for the substances below.
Target: hOT7T175 (Homo sapiens, UniProt Q969F8, L364H)
Experiment: Intracellular Ca ion level-increasing activity using FLIPR in hOT7T175/CHO
Type: cell-based
Parameters: expressed in transfected cells; host or cells: CHO/dhfr- cells, obtained from ATCC
Settings: relative, Metastin (1-54) = 1
readout.name: Specific Activity (intracellular Ca ion level-increasing activity)

substance: D-Tyr-D-Pya(4)-Asn-Ser-Phe-AzaGly-Leu-Arg(Me)-Trp-NH2 [Compound No. 385]
observed.measurement: 10
//
substance: 2-Aminoethyl-Gly-D-Tyr-Asn-Trp-Asn-Ser-Phe-Gly-Leu-Arg(Me)-Phe-NH2 [Compound No. 375]
observed.measurement: 2

###

Target: hOT7T175 (Homo sapiens, UniProt Q969F8, L364H)
Experiment: Intracellular Ca ion level-increasing activity using FLIPR in hOT7T175/CHO
Type: cell-based
Design: expressed in transfected cells; host or cells: CHO/dhfr- cells, obtained from ATCC
Details: relative, Metastin (1-54) = 1
Square brackets hold non-standard residues; d marks the D form. Peptide text beside a SMILES is read from it. * marks the point of attachment. X12 = CNC(=N)NCCC[C@H](NC(=O)[C@H](CC(C)C)NCCN*)C(=O)N[C@@H](Cc1ccccc1)C(N)=O; 1Nal = N[C@@H](Cc1cccc2ccccc12)C(=O)O; Arg(Me) = CNC(=N)NCCC[C@H](N)C(=O)O
Specific Activity (intracellular Ca ion level-increasing activity) values for the compounds below.
readout.name: Specific Activity (intracellular Ca ion level-increasing activity)

compound: CC(C)C[C@H](NC(=O)CNC(=O)[C@H](Cc1cccc2ccccc12)NC(=O)[C@H](CO)NC(=O)[C@H](CC(N)=O)NC(=O)[C@H](Cc1c[nH]c2ccccc12)NC(=O)[C@H](CC(N)=O)NC(=O)[C@@H](N)Cc1ccc(O)cc1)C(=O)N[C@@H](CCCNC(=N)N)C(=O)N[C@@H](Cc1ccccc1)C(N)=O [Compound No. 151] (H-YNWNS[1Nal]GLRF-NH2; N-terminus assumed)
observed.measurement: 1
//
compound: CNC(=N)NCCC[C@H](NC(=O)[C@H](CC(C)C)NCCNC(=O)[C@H](Cc1ccccc1)NC(=O)[C@H](CO)NC(=O)[C@H](CC(N)=O)NC(=O)[C@H](Cc1c[nH]c2ccccc12)NC(=O)[C@H](CC(N)=O)NC(=O)[C@H](N)Cc1ccc(O)cc1)C(=O)N[C@@H](Cc1ccccc1)C(N)=O [Compound No. 307] (H-[dY]NWNSF-X12)
observed.measurement: 1
//
compound: CNC(=N)NCCC[C@H](NC(=O)[C@H](CC(C)C)NC(=O)CNC(=O)[C@H](Cc1ccccc1)NC(=O)[C@H](CO)NC(=O)[C@@H](NC(=O)[C@H](Cc1c[nH]c2ccccc12)NC(=O)[C@H](CC(N)=O)NC(=O)[C@H](N)Cc1ccc(O)cc1)[C@@H](C)O)C(=O)N[C@@H](Cc1ccccc1)C(N)=O [Compound No. 208] (H-[dY]NWTSFGL[Arg(Me)]F-NH2)
observed.measurement: 1

###

Molecular target: hOT7T175 (Homo sapiens, UniProt Q969F8, L364H)
Experiment: hOT7T175 receptor binding activity: binding inhibition of Cy-5-labeled metastin (40-54) on hOT7T175-expressed CHO cells
readout.name: IC50 (nM)

structure.notation: CC(C)C[C@H](NC(=O)CNC(=O)[C@H](Cc1ccccc1)NC(=O)[C@H](CO)NC(=O)[C@H](CC(N)=O)NC(=O)[C@H](Cc1c[nH]c2ccccc12)NC(=O)[C@H](CC(N)=O)NC(=O)[C@@H](N)Cc1ccc(O)cc1)C(=O)N[C@@H](CCCNC(=N)N)C(=O)N[C@@H](Cc1cccc(C(F)(F)F)c1)C(N)=O
readout.name: IC50
observed.measurement: 340
//
structure.notation: CNC(=N)NCCC[C@H](NC(=O)[C@H](CC(C)C)NC(=O)NNC(=O)[C@H](Cc1ccccc1)NC(=O)[C@H](CO)NC(=O)[C@H](CC(N)=O)NC(=O)[C@@H](Cc1c[nH]c2ccccc12)NC(=O)[C@@H](CC(N)=O)NC(=O)[C@H](N)Cc1ccc(O)cc1)C(=O)N[C@@H](Cc1ccccc1)C(N)=O
readout.name: IC50
observed.measurement: 49

###

half-life at 100 µM values for the molecules below.
Test: in vitro
Conditions: female, Balb/c, mouse, serum
Numbered stars: 1 amine (or outer) side, 2 acyl side, 3 side chain; on linkers, the order of the positions; unused ones are H or OH. Square brackets hold non-standard residues; d marks the D form. Peptide text beside a SMILES is read from it. * marks the point of attachment. X11 = O=C(CNC(=S)[C@H](Cc1ccccc1)N[*:1])[*:2]; Propanoyl(3-(3-pyridyl)) = O=C(CCc1cccnc1)*; Arg(Me) = CNC(=N)NCCC[C@H](N)C(=O)O; 4Pal = N[C@@H](Cc1ccncc1)C(=O)O; d4Pal = N[C@H](Cc1ccncc1)C(=O)O; azaGly = NNC(=O)O

molecule: CNC(N)=NCCC[C@H](NC(=O)[C@H](CC(C)C)NC(=O)NNC(=O)[C@H](Cc1ccccc1)NC(=O)[C@H](CO)NC(=O)[C@H](CC(N)=O)NC(=O)[C@H](Cc1ccncc1)NC(=O)[C@H](CC(N)=O)NC(=O)[C@H](N)Cc1ccc(O)cc1)C(=O)N[C@@H](Cc1ccccc1)C(N)=O [Compound No. 286] (H-[dY]N[4Pal]NSF[azaGly]L[Arg(Me)]F-NH2)
units.label: min
half-life at 100 µM: 57.5
//
molecule: CNC(=N)NCCC[C@H](NC(=O)[C@H](CC(C)C)NC(=O)CNC[C@H](Cc1ccccc1)NC(=O)[C@H](CO)NC(=O)[C@H](CC(N)=O)NC(=O)[C@H](Cc1c[nH]c2ccccc12)NC(=O)[C@H](CC(N)=O)NC(=O)[C@H](N)Cc1ccc(O)cc1)C(=O)N[C@@H](Cc1ccccc1)C(N)=O [Compound No. 308]
units.label: min
half-life at 100 µM: 13.2
//
molecule: CNC(=N)NCCC[C@H](NC(=O)[C@H](CC(C)C)NC(=O)NNC(=O)[C@H](Cc1ccccc1)NC(=O)[C@H](CO)NC(=O)[C@H](CC(N)=O)NC(=O)[C@@H](Cc1ccncc1)NC(=O)[C@H](N)Cc1ccc(O)cc1)C(=O)N[C@@H](Cc1ccccc1)C(N)=O [Compound No. 305] (H-[dY][d4Pal]NSF[azaGly]L[Arg(Me)]F-NH2)
units.label: min
half-life at 100 µM: 66.6
//
molecule: CC(C)C[C@H](NC(=O)CNC(=O)[C@H](Cc1ccccc1)NC(=O)[C@H](CO)NC(=O)[C@H](CC(N)=O)NC(=O)[C@H](Cc1c[nH]c2ccccc12)NC(=O)[C@H](CC(N)=O)NC(=O)[C@@H](N)Cc1ccc(O)cc1)C(=O)N[C@@H](CCCNC(=N)N)C(=O)N[C@@H](Cc1c[nH]c2ccccc12)C(N)=O [Compound No. 134] (H-YNWNSFGLRW-NH2)
units.label: min
half-life at 100 µM: 2.4
//
molecule: CNC(=N)NCCC[C@H](NC(=O)[C@H](CC(C)C)NC(=O)NNC(=O)[C@H](Cc1ccccc1)NC(=O)[C@H](CO)NC(=O)[C@H](CC(N)=O)NC(=O)[C@H](Cc1c[nH]c2ccccc12)NC(=O)[C@H](CC(N)=O)NC(=O)[C@H](N)Cc1ccc(O)cc1)C(=O)N[C@@H](Cc1ccccc1)C(N)=O [Compound No. 232]
units.label: min
half-life at 100 µM: 28.2
//
molecule: CNC(N)=NCCC[C@H](NC(=O)[C@H](CC(C)C)NC(=O)CNC(=S)[C@H](Cc1ccccc1)NC(=O)[C@H](CO)NC(=O)[C@H](CC(N)=O)NC(=O)[C@H](Cc1c[nH]c2ccccc12)NC(=O)[C@H](CC(N)=O)NC(=O)[C@H](N)Cc1ccc(O)cc1)C(=O)N[C@@H](Cc1ccccc1)C(N)=O [Compound No. 296] (H-[dY]NWNS[X11]L[Arg(Me)]F-NH2)
units.label: min
half-life at 100 µM: 47.2
//
molecule: CNC(=N)NCCC[C@H](NC(=O)[C@H](CC(C)C)NC(=O)NNC(=O)[C@H](Cc1ccccc1)NC(=O)[C@H](CO)NC(=O)[C@H](CC(N)=O)NC(=O)CCc1cccnc1)C(=O)N[C@@H](Cc1ccccc1)C(N)=O [Compound No. 322] ({Propanoyl(3-(3-pyridyl))}-NSF[azaGly]L[Arg(Me)]F-NH2)
units.label: min
half-life at 100 µM: 94.2
//
molecule: CNC(=N)NCCC[C@H](NC(=O)[C@H](CC(C)C)NC(=O)CNC(=O)[C@H](Cc1ccccc1)NC(=O)[C@H](CO)NC(=O)[C@H](CC(N)=O)NC(=O)[C@H](Cc1c[nH]c2ccccc12)NC(=O)[C@H](CC(N)=O)NC(=O)[C@H](N)Cc1ccc(O)cc1)C(=O)N[C@@H](Cc1ccccc1)C(N)=O [Compound No. 141]
units.label: min
half-life at 100 µM: 8.7
//
molecule: CNC(N)=NCCC[C@H](NC(=O)[C@H](CC(C)C)NC(=O)CNC(=O)[C@H](Cc1ccccc1)NC(=O)[C@H](CO)NC(=O)[C@H](CC(N)=O)NC(=O)[C@H](Cc1c[nH]c2ccccc12)NC(=O)[C@H](CC(N)=O)NC(=O)[C@@H](N)Cc1ccc(O)cc1)C(=O)N[C@@H](Cc1ccccc1)C(N)=O [Compound No. 82]
units.label: min
half-life at 100 µM: 1.8
